- System: TO-N3 (biotin conjugate)
- Assay Summary: pull-down binding Z-score (relative to library population); higher = stronger binding
- Condition Context: RNA library: Library-2
Observed Property: pull-down binding Z-score

// query Entry under review: GUUGCUUAGAUUACAUGUAAC [hsa-mir-890] . Reported pull-down binding Z-score?
// result -0.579

// query Entry under review: UGGGUUAUCUUCAACCUA . Reported pull-down binding Z-score?
// result -0.726

// query Entry under review: CAUCAUUUGCACUACUGAUACUUGGGGUCAGAUAAUUGUUUGUGGUG [hsa-mir-4447] . Reported pull-down binding Z-score?
// result -0.914

// query Entry under review: GCUUUAGUCUACUUCUUGCAGAGUAUAAACUUUGUAAGAAUAAUAAUGAGGC [SHAPE_invitro_SARS-CoV-2_Motif_467] . Reported pull-down binding Z-score?
// result 0.0166

// query Entry under review: UUUUCUGUCCUGUCCACACAGAAAA [hsa-mir-1537] . Reported pull-down binding Z-score?
// result -1.27

Next:
// query Entry under review: UGUGUGCUGAGAAAAUUCACACA [hsa-mir-5580] . Reported pull-down binding Z-score?
// result -0.125

// query Entry under review: CAACAAUGUGUGAUAUCAGACAACUACUAUUUGUAGUUGAAGUUGUUG . Reported pull-down binding Z-score?
// result -0.104

// query Entry under review: GAACACUAUUCCAUUGUGUUC [hsa-mir-588] . Reported pull-down binding Z-score?
// result -1.33

// query Entry under review: AGUCACUUAGAUUACAUGUGACU [hsa-mir-888] . Reported pull-down binding Z-score?
// result -0.368

// query Entry under review: UGGGGCGCGAUCAAAACAACGUCGGCCCCA . Reported pull-down binding Z-score?
// result 0.0437

// query Entry under review: AGAUGAGGGUGUCGGAUCAACU [hsa-mir-193a] . Reported pull-down binding Z-score?
// result 0.579

// query Entry under review: ACAUGAAAAUAAAAUGUAAAUUAUUUUAUUUCUAUCA [hsa-mir-3671] . Reported pull-down binding Z-score?
// result 0.652

// query Entry under review: GGUGAAGGACGGGUCCAGUAGUUCGCUACUGUUGAGUAGAGUGUGAGCUCC [BabySpinach] . Reported pull-down binding Z-score?
// result 2.08

// query Entry under review: UUUGCCAUUGAAAGUAAUGGCAAA [hsa-mir-548d-2] . Reported pull-down binding Z-score?
// result -1.12

// query Entry under review: CAGGCUGUGGCUCUCUGAAAGUC [hsa-mir-148b] . Reported pull-down binding Z-score?
// result 1.09

// query Entry under review: CUUUUAUAUCAAGGCACAUAAAAG [hsa-mir-3910-1] . Reported pull-down binding Z-score?
// result -0.626

// query Entry under review: GAGACUUUAAAAGCGUCUC [hsa-mir-3926-1] . Reported pull-down binding Z-score?
// result -0.993

// query Entry under review: CUGGGAAACUGUUAAAAUUCAGUGGUCCCAG [IAV_invivo_PB2_1_Motif_27+IAV_invivo_PB2_1_Motif_27] . Reported pull-down binding Z-score?
// result -0.972

// query Entry under review: AGGGGACACGGGCAAAGACUUGGGGGUUCCUGGGACCCUCAGACGUGUGUCCUCU [hsa-mir-877] . Reported pull-down binding Z-score?
// result 0.632

// query Entry under review: GGCGGGCGGCGGUGCCCGUC [hsa-mir-4449] . Reported pull-down binding Z-score?
// result 1.53

// query Entry under review: GCACGUAGUGUAGCUAGUCAAUCCAUCAUUGCCUACACUAUGUC . Reported pull-down binding Z-score?
// result 0.227

* * *

- Tested on: TO-N3-2 (biotin conjugate)
- Assay Summary: pull-down binding Z-score (relative to library population); higher = stronger binding
- Condition Context: RNA library: Library-2
Observed Property: pull-down binding Z-score
I only need the number, thanks.

Reference set, count: 3
// query Entry under review: CUUCAGCCCCAGGAAGCCUUGGUCGGGGGCAGGAG [hsa-mir-647] . Reported pull-down binding Z-score?
// result 0.849

// query Entry under review: GACACCUGGAUUCAGAGAACAUGUC [hsa-mir-1276] . Reported pull-down binding Z-score?
// result 0.137

// query Entry under review: CUGGAGUCGCCUGAGUCAUCACUCAG [hsa-mir-3065] . Reported pull-down binding Z-score?
// result 0.525

Next:
// query Entry under review: CAACAAAAGUUG [SHAPE_invivo_SARS-CoV-2_Motif_413] . Reported pull-down binding Z-score?
// result -1.52

// query Entry under review: CUCAAGUCCUCUAUUUCUUUGAA [hsa-mir-7978] . Reported pull-down binding Z-score?
// result 0.0517

// query Entry under review: GAUGAGUACGAACUUAUGUACUCAUU . Reported pull-down binding Z-score?
// result -0.762

// query Entry under review: GGGCCGUGCACCCGUGGGCCCC [hsa-mir-1915] . Reported pull-down binding Z-score?
// result 1.28

// query Entry under review: GCUUUGAUAUGGAACGUUAAAGAUUUCAUGUCAUUGU . Reported pull-down binding Z-score?
// result -0.395

// query Entry under review: AUUAGAGAAAACAACAGAGUUGUUAUUUCUAGU [DMSMaPseq_invitro_SARS-CoV-2_Motif_378] . Reported pull-down binding Z-score?
// result -0.787

// query Entry under review: CAAAUGUGCCUUUCAACUCUCAUGAAGUGUGAUCAUUGUGGUGAAACUUCAUGGCAGACGGGCGAUUUUG . Reported pull-down binding Z-score?
// result 0.555

* * *

- Test system: TO-N3-2 (biotin conjugate)
- Assay Summary: pull-down binding Z-score (relative to library population); higher = stronger binding
- Condition Context: RNA library: Library-2
Observed Property: pull-down binding Z-score
I only need the number, thanks.

// query Entry under review: GGAGCCCGAGCAGCCGCGGUGAA [hsa-mir-7706] . Reported pull-down binding Z-score?
// result 2.55

// query Entry under review: UGACAUUACACCAUGUUCUUUUGGUGGUGUCA . Reported pull-down binding Z-score?
// result -1.47

// query Entry under review: GUGCGGCACAGGCACUAGUACUGAUGUCGUAU [SHAPE_invitro_SARS-CoV-2_Motif_246] . Reported pull-down binding Z-score?
// result 0.326

// query Entry under review: GCAGGUAGCUUUUUGAGAUCUACUGC [hsa-mir-106a] . Reported pull-down binding Z-score?
// result -0.248

// query Entry under review: ACAAUGGCAGACCUCGUCUAUGCUUUAAGGCAUUUUGAUGAAGGUAAUUGU . Reported pull-down binding Z-score?
// result -1.12

// query Entry under review: CUUAGGGACAACCUUGAACCUGGG [IAV_invivo_PA_3_Motif_29+IAV_invivo_PA_3_Motif_29] . Reported pull-down binding Z-score?
// result 0.0467

// query Entry under review: GCCGGAUCAGACCGAGUGAUGGUAUCACCACUGGC [IAV_invivo_PB2_1_Motif_5+IAV_invivo_PB2_1_Motif_5] . Reported pull-down binding Z-score?
// result 0.505

// query Entry under review: GGGAAAGAAGUCCU [IAV_invivo_HA_4_Motif_8+IAV_invivo_HA_4_Motif_8] . Reported pull-down binding Z-score?
// result -0.872

// query Entry under review: ACUACUGUACUUUACAGCUAGCAGU [hsa-mir-301a] . Reported pull-down binding Z-score?
// result 1.09

// query Entry under review: CGAGCCGCUUCCUCACGGCUCG [hsa-mir-4665] . Reported pull-down binding Z-score?
// result -0.871

Next:
// query Entry under review: ACGAUAUAGGUAUGUAUGUAUGUAUGUAUAAAAGCAGGGCAGUAUAUAUAUCGU [hsa-mir-4536-2] . Reported pull-down binding Z-score?
// result 0.482

// query Entry under review: UUCUGCUGUGCCUUACAGCAGUAGAA [hsa-mir-3179-4_3179-1_3179-3_3179-2] . Reported pull-down binding Z-score?
// result -0.695

* * *

- System: TO-N3-2 (biotin conjugate)
- Assay Summary: pull-down binding Z-score (relative to library population); higher = stronger binding
- Condition Context: RNA library: Library-2
Kind request: treat -0.5 as inclusive, so pull-down binding Z-score at -0.5 or higher is Fulfilled, anything lower is Not fulfilled.

These solved cases illustrate the format of a correct answer.
// query Assess whether reported pull-down binding Z-score for AUCAGGCAGUUUCCUG [hsa-mir-4289] sits at -0.5 or higher.
// result Fulfilled

// query Assess whether reported pull-down binding Z-score for AUACCUGCACGUGCUCGUGUAGAGUGU sits at -0.5 or higher.
// result Fulfilled

// query Assess whether reported pull-down binding Z-score for CAGCCAUGACCUGACCUUCUGUCUG [hsa-mir-4677] sits at -0.5 or higher.
// result Fulfilled

// query Assess whether reported pull-down binding Z-score for UGGGAUUAUCCUA [DMSMaPseq_invitro_SARS-CoV-2_Motif_276] sits at -0.5 or higher.
// result Not fulfilled

// query Assess whether reported pull-down binding Z-score for GUCUGGCAUUGUCUGAUAUAC [hsa-mir-1294] sits at -0.5 or higher.
// result Fulfilled

// query Assess whether reported pull-down binding Z-score for UCCCCUAGCGCGCCUUCUGGAGA [hsa-mir-3188] sits at -0.5 or higher.
// result Fulfilled

// query Assess whether reported pull-down binding Z-score for UGGGUCAAGGAGCCCA [hsa-mir-4530] sits at -0.5 or higher.
// result Fulfilled

// query Assess whether reported pull-down binding Z-score for GCUAAAUUGUUACAUAAACCUAUUGUUUGGCAUGUUAACAAUGC [SHAPE_invitro_SARS-CoV-2_Motif_124] sits at -0.5 or higher.
// result Not fulfilled

// query Assess whether reported pull-down binding Z-score for UAUCCAAACGCAAGCUUCGAUAAUUUUAAGUUUGUAUGUGAUA [DMSMaPseq_invitro_SARS-CoV-2_Motif_115] sits at -0.5 or higher.
// result Not fulfilled

// query Assess whether reported pull-down binding Z-score for GCAGAUAGUGGUCCUCUCCGUGCUACCGC [hsa-mir-106b] sits at -0.5 or higher.
// result Fulfilled

Next:
// query Assess whether reported pull-down binding Z-score for AAUCCCAGCACUUUGGGAG [hsa-mir-3929] sits at -0.5 or higher.
// result Fulfilled

// query Assess whether reported pull-down binding Z-score for GUUGCUGUACCUACAGGUUAUGUUGAUACACCUAAUAAUACAGAUUUUUCCAGAGUUAGUGCUAAACCACCGCCUGGAGAUCAAU [SHAPE_invitro_SARS-CoV-2_Multi_51_ComplexLevel_1] sits at -0.5 or higher.
// result Fulfilled

// query Assess whether reported pull-down binding Z-score for GCUCACCGUGCCCAGUGAGC [IAV_invivo_M1_M2_7_Motif_5+IAV_invivo_M1_M2_7_Motif_5] sits at -0.5 or higher.
// result Not fulfilled

// query Assess whether reported pull-down binding Z-score for UGGGCAGUUCUUCUGCUGG [hsa-mir-1587] sits at -0.5 or higher.
// result Fulfilled

// query Assess whether reported pull-down binding Z-score for GUGGUGAGACACUUGGUGUCCUUGUCCCUCAUGUGGGCGAAAUACCAGUGGCUUACCGC sits at -0.5 or higher.
// result Fulfilled

// query Assess whether reported pull-down binding Z-score for AAUAUUGCUUUGCUUGUACAGUAAGUGACAACAGAUGUUUCAUCUCGUUGACUUUCAGGUUACUAUAGCAGAGAUAUU [DMSMaPseq_invitro_SARS-CoV-2_Motif_488] sits at -0.5 or higher.
// result Fulfilled

// query Assess whether reported pull-down binding Z-score for UGCUCAAGAAGCUUAUGAGCA [SHAPE_invivo_SARS-CoV-2_Motif_229] sits at -0.5 or higher.
// result Fulfilled

// query Assess whether reported pull-down binding Z-score for UGCUUCCACAUAGCAGCA [hsa-mir-4752] sits at -0.5 or higher.
// result Not fulfilled
